- Target Desc: human B1 receptor (Homo sapiens, UniProt P46663)
- Construct: host or cells: CHO-K1
- Sequence (P46663 1-353): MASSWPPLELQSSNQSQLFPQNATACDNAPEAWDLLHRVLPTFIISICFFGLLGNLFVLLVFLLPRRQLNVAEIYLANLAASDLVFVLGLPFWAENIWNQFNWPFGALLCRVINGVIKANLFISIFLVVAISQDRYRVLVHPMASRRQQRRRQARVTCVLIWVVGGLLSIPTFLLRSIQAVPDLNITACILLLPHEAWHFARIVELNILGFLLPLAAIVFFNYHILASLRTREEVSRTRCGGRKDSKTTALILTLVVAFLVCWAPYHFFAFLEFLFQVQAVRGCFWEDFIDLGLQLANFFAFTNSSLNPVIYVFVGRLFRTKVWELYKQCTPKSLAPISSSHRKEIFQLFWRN
- Test Method Notes: Calcium flux assay (FLIPR) with recombinant CHO-K1 cells expressing human B1 receptor
- Format: cell-based
- Reported Conditions: absence of 0.1% BSA in assay buffer, read-out: hB1 free IC50
Recorded measurements of pIC50, one per entry
For clarity, pIC50 is expressed as the negative log10 of concentration in mol/L.

Cc1cccc(C2CC2C(=O)Nc2cc(-c3nnn[nH]3)c(-c3ccc(C(F)(F)F)nc3)cc2O)c1 (racemic) [Example 52] | 7.39

Q: Give the reported pIC50 for this compound. O=C(Nc1ccc(-n2cc(C(F)(F)F)cn2)c(-c2nnn[nH]2)c1)C1CC1c1ccc(Cl)cc1 (racemic) [Example 46]
Result: 5.93

Q: Give the reported pIC50 for this compound. CCOc1ccc(-c2ccc(NC(=O)C3CC3c3cccc(C)c3)cc2-c2nnn[nH]2)cn1 (racemic) [Example 18]
Result: 8.30

Q: Give the reported pIC50 for this compound. COc1ccc(-c2ccc(NC(=O)C3CC3c3cccc(Cl)c3)cc2-c2nnn[nH]2)cc1OC (racemic) [Example 8]
Result: 7.92

Q: Give the reported pIC50 for this compound. Cc1cccc(C2CC2C(=O)Nc2ccc(-c3cc4ccccc4s3)c(-c3nnn[nH]3)c2)c1 (racemic) [Example 76]
Result: 6.60

Q: Give the reported pIC50 for this compound. O=C(Nc1cc(-c2nnn[nH]2)c(-c2ccc(C(F)(F)F)nc2)cc1O)C1CC1c1ccc(Cl)cc1 (centres unmarked) [Example 83]
Result: 6.73

Q: Give the reported pIC50 for this compound. CCOc1ccc(-c2c(F)cc(NC(=O)C3CC3c3ccc(Cl)cc3)cc2-c2nnn[nH]2)cn1 (racemic) [Example 61]
Result: 7.92

Q: Give the reported pIC50 for this compound. CC[C@@H]1CCN(c2ccc(NC(=O)C3CC3c3ccc(Cl)cc3)cc2-c2nnn[nH]2)C1=O (some centres unmarked) [Example 75]
Result: 6.34

Q: Give the reported pIC50 for this compound. CC1(C(=O)Nc2ccc(-c3ccc(C(F)(F)F)nc3)c(-c3nnn[nH]3)c2)CC1c1ccccc1 (racemic) [Example 29]
Result: 6.28

Q: Give the reported pIC50 for this compound. COc1ccc(-c2ccc(NC(=O)C3CC3c3ccccc3OC(F)(F)F)cc2-c2nnn[nH]2)cc1OC (racemic) [Example 6]
Result: 8.22

Q: Give the reported pIC50 for this compound. O=C(Nc1cc(F)c(-c2ccc(C(F)(F)F)nc2)c(-c2nnn[nH]2)c1)C1CC1c1ccc(Cl)cc1 (racemic) [Example 62]
Result: 6.02

Q: Give the reported pIC50 for this compound. CC(C)(C)c1cn(-c2ccc(NC(=O)C3CC3c3ccc(Cl)cc3)cc2-c2nnn[nH]2)cn1 (racemic) [Example 48]
Result: 8.00

Q: Give the reported pIC50 for this compound. CC(C)(C)c1cn(-c2ccc(NC(=O)C3CC3c3ccc(Cl)cc3)cc2-c2nnn[nH]2)cn1 (single isomer, unassigned) [Example 84]
Result: 8.40

Q: Give the reported pIC50 for this compound. O=C(Nc1ccc(-n2ccc(C(F)(F)F)n2)c(-c2nnn[nH]2)c1)C1CC1c1ccc(Cl)cc1 (racemic) [Example 47]
Result: 5.91

---

- Target Desc: human B1 receptor (Homo sapiens, UniProt P46663)
- Construct: host or cells: CHO-K1
- Test Method Notes: Calcium flux assay (FLIPR) with recombinant CHO-K1 cells expressing human B1 receptor
- Type: cell-based
- Reported Conditions: absence of 0.1% BSA in assay buffer, read-out: hB1 free IC50
Doc: threshold 20 nM (exclusive). Items with IC50 beneath it return satisfied; others return not satisfied.

Examples with answers:
O=C(Nc1ccc(-n2cc(C(F)(F)F)cn2)c(-c2nnn[nH]2)c1)C1CC1c1ccccc1 (racemic) [Example 43] | not satisfied
CC(C)(C)c1cnn(-c2ccc(NC(=O)C3CC3c3ccc(Cl)cc3)cc2-c2nnn[nH]2)c1 (racemic) [Example 44] | not satisfied
COc1ccc(-c2cc(F)c(NC(=O)C3CC3c3ccc(Cl)cc3)cc2-c2nnn[nH]2)cc1C (racemic) [Example 57] | not satisfied
CC(C)(C)c1cn(-c2ccc(NC(=O)C3CC3c3ccc(Cl)cc3)cc2-c2nnn[nH]2)cn1 (single isomer, unassigned) [Example 85] | not satisfied
COc1ccc(-c2cc(F)c(NC(=O)C3CC3c3cccc(C)c3)cc2-c2nnn[nH]2)cc1 (racemic) [Example 55] | satisfied
Cc1cc(-c2ccc(C(F)(F)F)nc2)c(-c2nnn[nH]2)cc1NC(=O)C1CC1C1CCCCC1 (racemic) [Example 71] | not satisfied

Next up:
Q: Could you please tell me whether IC50 recorded for CCOc1ccc(-c2ccc(NC(=O)C3CC3c3cccc(Cl)c3)cc2-c2nnn[nH]2)cn1 (racemic) [Example 19] is less than 20 nM?
Result: satisfied

---

- Target Desc: native human B1 receptors (Homo sapiens)
- Construct: which express native human B1 receptors after induction with human IL-1; Coriell Institute
- Sequence (P46663 1-353): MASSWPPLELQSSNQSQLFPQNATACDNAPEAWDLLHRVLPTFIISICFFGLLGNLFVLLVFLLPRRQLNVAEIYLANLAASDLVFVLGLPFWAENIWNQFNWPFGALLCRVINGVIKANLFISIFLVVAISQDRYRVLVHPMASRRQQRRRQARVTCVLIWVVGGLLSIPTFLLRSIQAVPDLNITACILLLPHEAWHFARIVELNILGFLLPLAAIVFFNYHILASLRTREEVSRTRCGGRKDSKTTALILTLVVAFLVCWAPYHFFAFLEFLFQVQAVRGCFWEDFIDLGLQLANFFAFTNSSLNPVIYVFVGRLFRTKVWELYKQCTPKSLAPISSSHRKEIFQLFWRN
- Test Method Notes: Calcium flux assay (FLIPR) with IMR-90 human fibroblasts for Bradykinin B1 receptor antagonist
- Reported Conditions: IMR-90 human foetal lung fibroblasts after induction with human IL-1; 0.1% BSA in assay buffer; read-out: hB1 IC50 IMR90
Attribute Measured: IC50 (nM)
State just the number; it will be interpreted in nM.

CCOc1ccc(-c2c(F)cc(NC(=O)C3CC3c3ccc(Cl)cc3)cc2-c2nnn[nH]2)cn1 (racemic) | 44

Q: Give the reported IC50 for this compound. COc1ccc(-c2ccc(NC(=O)C3CC3c3cccc(Cl)c3)cc2-c2nnn[nH]2)cc1OC (racemic)
Result: 8

Q: Give the reported IC50 for this compound. CCOc1ccc(-c2ccc(NC(=O)C3(C)CC3c3ccccc3)cc2-c2nnn[nH]2)cn1 (racemic)
Result: 22

Q: Give the reported IC50 for this compound. CCOc1ccc(-c2cc(C)c(NC(=O)C3CC3c3ccc(Cl)cc3)cc2-c2nnn[nH]2)cn1 (racemic)
Result: 63

Q: Give the reported IC50 for this compound. COc1ccc(-c2ccc(NC(=O)C3CC3C3CCC(C)CC3)cc2-c2nnn[nH]2)cc1OC (racemic)
Result: 25

Q: Give the reported IC50 for this compound. CCOc1ccc(-c2ccc(NC(=O)C3CC3c3cccc(C)c3)cc2-c2nnn[nH]2)cn1 (racemic)
Result: 6

---

Recorded measurements of IC50, one per entry
- Target Desc: human B1 receptor (Homo sapiens, UniProt P46663)
- Construct: host or cells: CHO-K1
- Test Method Notes: Calcium flux assay (FLIPR) with recombinant CHO-K1 cells expressing human B1 receptor
- Assay type: cell-based
- Reported Conditions: presence of 0.1% BSA in assay buffer, read-out: hB1 IC50
Your reply should be a number followed by the unit it is expressed in.

// known answers, use as guide
COc1ccc(-c2ccc(NC(=O)C3CC3c3cnn(C)c3)cc2-c2nnn[nH]2)cc1OC (racemic) [Example 2] | 2120 nM
CCOc1ccc(-c2cc(C)c(NC(=O)C3CC3C3CCCCC3)cc2-c2nnn[nH]2)cc1OC (racemic) [Example 73] | 226 nM

Let us move to another entry and its IC50.
Q: Give the reported IC50 for this molecule. COc1ccc(-c2ccc(NC(=O)C3CC3c3ccc(Cl)cc3)cc2-c2nnn[nH]2)cc1OC (racemic) [Example 9]
Result: 19 nM

---

- Target Desc: human B1 receptor (Homo sapiens)
- Construct: host or cells: CHO-K1
- Sequence (P46663 1-353): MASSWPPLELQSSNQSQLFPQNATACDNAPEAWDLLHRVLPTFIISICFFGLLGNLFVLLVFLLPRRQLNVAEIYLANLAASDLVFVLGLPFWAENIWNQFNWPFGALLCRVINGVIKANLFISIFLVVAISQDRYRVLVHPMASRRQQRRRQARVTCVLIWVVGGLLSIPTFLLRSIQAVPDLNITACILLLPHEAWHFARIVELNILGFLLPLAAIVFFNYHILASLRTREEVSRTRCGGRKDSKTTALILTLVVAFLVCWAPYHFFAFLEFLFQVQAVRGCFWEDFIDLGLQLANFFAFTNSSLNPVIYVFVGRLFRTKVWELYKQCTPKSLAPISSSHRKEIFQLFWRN
- Test Method Notes: Calcium flux assay (FLIPR) with recombinant CHO-K1 cells expressing human B1 receptor
- Type: cell-based
- Reported Conditions: presence of 0.1% BSA in assay buffer, read-out: hB1 IC50
Doc: threshold 200 nM (exclusive). Items with IC50 beneath it return Criterion met; others return Criterion not met.

COc1ccc(-c2c(F)cc(NC(=O)C3CC3c3cccc(C)c3)cc2-c2nnn[nH]2)cc1OC (racemic) [Example 59] | Criterion met
CCOc1cncc(-c2ccc(NC(=O)C3CC3c3ccc(Cl)cc3)cc2-c2nnn[nH]2)c1 (racemic) [Example 22] | Criterion not met
COc1ccc(-c2ccc(NC(=O)C3CC3C3CCC(C)CC3)cc2-c2nnn[nH]2)cc1OC (racemic) [Example 15] | Criterion met
COc1ccc(-c2ccc(NC(=O)C3CC3c3ccc(Cl)cc3)cc2-c2nnn[nH]2)cc1C (racemic) [Example 34] | Criterion not met
CCOc1cncc(-c2ccc(NC(=O)C3CC3c3cccc(C)c3)cc2-c2nnn[nH]2)c1 (racemic) [Example 23] | Criterion not met

Q: Could you please tell me whether IC50 recorded for COCc1ccc(-c2ccc(NC(=O)C3CC3C3CCCCC3)cc2-c2nnn[nH]2)cc1 (racemic) [Example 82] is less than 200 nM?
Result: Criterion not met

From: patent US20190194148A1
